Where these numbers come from: the supplement of paper PMC13380429

Listing of entries alongside the reported cell viability.
System: Vero E6
Assay: cell viability relative to DMSO; higher = less toxic
Details: 72 h; 1000 nM

Completed entries (count: 3):
Query: Item under review: CC(C)n1nc(-c2ccc3oc(N)nc3c2)c2c(N)ncnc21 . Reported cell viability?
Response: 35.6%

Query: Try the compound C=C1/C(=C\C=C2/CCC[C@]3(C)[C@@H]([C@H](C)OCCC(C)(C)O)CC[C@@H]23)C[C@@H](O)C[C@@H]1O
Response: 100%

Query: Try the compound O=C(O)CCCCCCNC1c2ccccc2CCc2ccccc21
Response: 100%

Switching to the query record.
Query: Item under review: Cn1nnc(-c2ccc(-c3ccc(N4C[C@H](CO)OC4=O)cc3F)cn2)n1 . Reported cell viability?
Response: 101%

###

Listing of entries alongside the reported cell viability.
Test system: U2OS
Test: cell viability relative to DMSO; higher = less toxic
Conditions: 72 h; 10000 nM
Unit % implied. Number only.

Query: Item under review: COc1cc(C2Oc3cc([C@H]4Oc5cc(O)cc(O)c5C(=O)[C@@H]4O)ccc3OC2CO)ccc1O (stereo partly drawn) [silibinin] . Reported cell viability?
Response: 93.6

Query: Try the compound O=C(CCc1ccc(O)cc1)c1c(O)cc(O)cc1O [phloretin]
Response: 101

Query: Try the compound O=C(O)c1cc(/N=N/c2ccc(O)c(C(=O)O)c2)ccc1O [olsalazine]
Response: 103

Query: Try the compound CC1(C)[C@H]2CC[C@]1(C)[C@@H](O)[C@H]2O [cis-exo-camphanediol-2,3]
Response: 99

Query: Try the compound C[n+]1cc2c3c(ccc2c2ccc4cc5c(cc4c21)OCO5)OCO3 [sanguinarium-chloride]
Response: 0.2

Further cases:
Query: Item under review: CN(C(=O)/C=C/c1ccoc1)[C@@H]1CC[C@@]2(O)[C@H]3Cc4ccc(O)c5c4[C@@]2(CCN3CC2CC2)[C@H]1O5 [nalfurafine] . Reported cell viability?
Response: 105

Query: Try the compound Cn1nnc(-c2ccc(-c3ccc(N4C[C@H](CO)OC4=O)cc3F)cn2)n1 [tedizolid]
Response: 94.1

Query: Try the compound Nc1ccc(O)c(C(=O)O)c1 [mesalazine]
Response: 104

###

Test system: Calu-3
Assay: cell viability relative to DMSO; higher = less toxic
Conditions: 72 h; 10 nM
measurement.kind: cell viability (%)
Unit % implied. Number only.

Completed entries (count: 2):
Query: Item under review: C[C@@H]1C[C@H]2[C@@H]3CCC4=CC(=O)C=C[C@]4(C)[C@@]3(F)[C@@H](O)C[C@]2(C)[C@@]1(O)C(=O)COP(=O)(O)O [DEXAMETHASONE SODIUM PHOSPHATE] . Reported cell viability?
Response: 107

Query: Try the compound CC(C)COC(=O)c1ccc(N)cc1
Response: 100

Switching to the query record.
Query: Item under review: FC(F)(F)c1ccc(CNc2ccc(Cc3c[nH]c4ncccc34)cn2)cc1 . Reported cell viability?
Response: 96.4

###

Test system: U2OS
Assay: cell viability relative to DMSO; higher = less toxic
Settings: 72 h; 100 nM
Listing of entries alongside the reported cell viability.
Unit % implied. Number only.

Query: Item under review: COC(=O)[C@@H]1C[C@H](OC(C)=O)C(=O)[C@H]2[C@@]1(C)CC[C@H]1C(=O)O[C@H](c3ccoc3)C[C@]21C . Reported cell viability?
Response: 93.1

Query: Try the molecule COc1ccc(S(=O)(=O)Nc2cccnc2Nc2ccc(O)cc2)cc1
Response: 104

Query: Try the molecule COc1cc(C#N)ccc1S(=O)(=O)Nc1ccc2c(c1)cc(C)c(=O)n2C
Response: 101

Query: Try the molecule CN1CCN(C(=O)c2nc3ccc(Cl)cc3[nH]2)CC1
Response: 103

Query: Try the molecule Cn1cccc1/C=C1\C(=O)NC(=O)c2ccccc21
Response: 106

###

Listing of entries alongside the reported cell viability.
Tested on: HepG2
Assay: cell viability relative to DMSO; higher = less toxic
Settings: 72 h; 10000 nM
Unit % implied. Number only.

Query: Item under review: COc1ccccc1N1CCN(CCCCN2C(=O)c3ccccc3C2=O)CC1 [NAN-190] . Reported cell viability?
Response: 103

Query: Try the molecule C[C@]12CC/C(=N\OCCN)C[C@@H]1C(=O)C[C@@H]1[C@@H]2CC[C@]2(C)C(=O)CC[C@@H]12 [istaroxime]
Response: 87.2

Query: Try the molecule CN1C(CCl)Nc2cc(Cl)c(S(N)(=O)=O)cc2S1(=O)=O (configuration not stated) [methyclothiazide]
Response: 105

Query: Try the molecule O=C(CCc1ccncc1)NNC(=O)N1Cc2ccccc2Oc2ccc(Cl)cc21
Response: 107

Query: Try the molecule CCCCc1cc2ccccc2c(OCCN(C)C)n1 [dimethisoquin]
Response: 102

Query: Try the molecule CC[C@@]1([C@H]2O[C@H]([C@H]3O[C@@](O)(CO)[C@H](C)C[C@@H]3C)C[C@H]2C)CC[C@H]([C@@]2(C)CC[C@]3(C[C@H](O)[C@@H](C)[C@@H]([C@H](C)[C@H](OC)[C@@H](C)C(=O)O)O3)O2)O1 [MONENSIN SODIUM]
Response: 26.2

Switching to the query record.
Query: Item under review: Cn1c(NCCN(CCO)CCCc2ccc([N+](=O)[O-])cc2)cc(=O)n(C)c1=O [nifekalant] . Reported cell viability?
Response: 109

###

Listing of entries alongside the reported cell viability.
System: HepG2
Experiment: cell viability relative to DMSO; higher = less toxic
Conditions: 72 h; 10 nM
Unit % implied. Number only.

Completed entries (count: 3):
Query: Item under review: Cc1cc(O)c2c(=O)c3c(O)cc(O)c4c5c(O)cc(O)c6c(=O)c7c(O)cc(C)c8c1c2c(c34)c(c78)c65 . Reported cell viability?
Response: 106

Query: Try the compound Nc1ncnc2nc(-c3ccc(N4CCOCC4)nc3)cc(-c3cccc(Br)c3)c12
Response: 96.4

Query: Try the compound CC1CCc2cc(F)cc3c(=O)c(C(=O)O)cn1c23 (stereo not given)
Response: 97.7

Further cases:
Query: Item under review: CCCN(CCC)CCc1cccc2c1CC(=O)N2 . Reported cell viability?
Response: 100

Query: Try the compound COc1cc(Br)c(Nc2nc(-c3c(C)nc4ncccn34)cs2)c(Br)c1
Response: 97.5

###

System: Caco-2
Assay: cell viability relative to DMSO; higher = less toxic
Conditions: 72 h; 100 nM
measurement.kind: cell viability

Completed entries (count: 8):
Query: Item under review: Cc1[nH]c2ccc(O)cc2c1CCN [2-methyl-5-hydroxytryptamine] . Reported cell viability?
Response: 98.3%

Query: Try the molecule O=C(O)c1cc(/N=N/c2ccc(O)c(C(=O)O)c2)ccc1O
Response: 104%

Query: Try the molecule CCCCNc1cc(C(=O)O)cc(S(N)(=O)=O)c1Oc1ccccc1 [bumetanide]
Response: 103%

Query: Try the molecule COc1ccc(CCN(C)CCCC(C#N)(c2cc(OC)c(OC)c(OC)c2)C(C)C)cc1OC (centres undefined)
Response: 92.1%

Query: Try the molecule CCCCCCOc1nsnc1C1=CCCN(C)C1
Response: 99.1%

Query: Try the molecule C=C1/C(=C\C=C2/CCC[C@]3(C)[C@@H]([C@H](C)OCCC(C)(C)O)CC[C@@H]23)C[C@@H](O)C[C@@H]1O
Response: 94.1%

Query: Try the molecule CCCCCCCCCCCCCCCCNc1ccc(C(=O)O)cc1
Response: 109%

Query: Try the molecule O=S(=O)(O)CCSSCCS(=O)(=O)O
Response: 101%

Further cases:
Query: Item under review: CN(C)CCn1nnnc1SCC1=C(C(=O)O)N2C(=O)[C@@H](NC(=O)Cc3csc(N)n3)[C@H]2SC1 . Reported cell viability?
Response: 101%

###

Listing of entries alongside the reported cell viability.
Tested on: Vero E6
Experiment: cell viability relative to DMSO; higher = less toxic
Settings: 72 h; 100 nM
Unit % implied. Number only.

Query: Item under review: COc1ccc(OC)c(C(O)C(C)N)c1 (centres undefined) [methoxamine] . Reported cell viability?
Response: 99.4

Query: Try the compound O=C(O)CCC(=O)C(=O)O [2-oxoglutaric-acid]
Response: 98.3

Query: Try the compound O=C1c2c(O)cc(O)cc2O[C@H](c2cc(O)c(O)c(O)c2)[C@H]1O [dihydromyricetin]
Response: 96.4

Further cases:
Query: Item under review: C/C(=N\NC(=N)N)c1cc(NC(=O)CCCCCCCCC(=O)Nc2cc(/C(C)=N/NC(=N)N)cc(/C(C)=N/NC(=N)N)c2)cc(/C(C)=N/NC(=N)N)c1 [semapimod] . Reported cell viability?
Response: 92.1

###

System: U2OS
Experiment: cell viability relative to DMSO; higher = less toxic
Conditions: 72 h; 1 nM
measurement.kind: cell viability (%)
Unit % implied. Number only.

Query: Item under review: CC(/C=C/C(=O)NO)=C\[C@@H](C)C(=O)c1ccc(N(C)C)cc1 . Reported cell viability?
Response: 99.7

Query: Try the molecule CCOc1ccc2nc(S(N)(=O)=O)sc2c1 [ethoxzolamide]
Response: 96.6

Query: Try the molecule CC1=C(/C=C/C(C)=C/C=C/C(C)=C/C=O)C(C)(C)CCC1
Response: 104

Query: Try the molecule CN(C/C=C/C#CC(C)(C)C)Cc1cccc2ccccc12
Response: 103

Further cases:
Query: Item under review: CN(C(=O)/C=C/c1ccoc1)[C@@H]1CC[C@@]2(O)[C@H]3Cc4ccc(O)c5c4[C@@]2(CCN3CC2CC2)[C@H]1O5 . Reported cell viability?
Response: 100

Query: Try the molecule C/C(=N\NC(=N)N)c1cc(NC(=O)CCCCCCCCC(=O)Nc2cc(/C(C)=N/NC(=N)N)cc(/C(C)=N/NC(=N)N)c2)cc(/C(C)=N/NC(=N)N)c1
Response: 101

Query: Try the molecule C1CCC(C(CC2CCCCN2)C2CCCCC2)CC1 (centres undefined)
Response: 101

Query: Try the molecule COc1ccc(CCN(C)CCCC(C#N)(c2cc(OC)c(OC)c(OC)c2)C(C)C)cc1OC (centres undefined)
Response: 94

Query: Try the molecule COc1cc(N)c(Cl)cc1C(=O)NC1CCN(Cc2ccccc2)CC1 [clebopride]
Response: 93.7

Query: Try the molecule O=C1CN=C(c2cccc(Br)c2)c2oc3ccccc3c2N1
Response: 104

Query: Try the molecule O=C1C(CC[S+]([O-])c2ccccc2)C(=O)N(c2ccccc2)N1c1ccccc1 (centres undefined)
Response: 97.5

Query: Try the molecule CCCn1c(=O)c2[nH]c(-c3cnn(Cc4cccc(C(F)(F)F)c4)c3)nc2n(CC)c1=O
Response: 96.9

Query: Try the molecule Clc1ccc(COC(Cn2ccnc2)c2ccc(Cl)cc2Cl)cc1 (centres undefined)
Response: 102

Query: Try the molecule CCN1CCCC1=O
Response: 95.9

Query: Try the molecule O=C(O)CCC(=O)C(=O)O
Response: 98.5

Query: Try the molecule Clc1cccc(-c2nnnn2Cc2cccnc2)c1Cl
Response: 97

Query: Try the molecule Cn1nnc2c(C(N)=O)ncn2c1=O [temozolomide]
Response: 98

Query: Try the molecule CNCCC=C1c2ccccc2C=Cc2ccccc21
Response: 102

Query: Try the molecule O=C1c2ccccc2C(=O)c2ccccc21
Response: 105
